Data origin: the supplement of paper PMC7125110

B1: glmS ribozyme (parent)
chain: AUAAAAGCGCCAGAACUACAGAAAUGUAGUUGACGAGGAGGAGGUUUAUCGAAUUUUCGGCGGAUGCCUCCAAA

Variants of: B1
Experiment: self-cleavage kobs at 10000 uM GlcN6P; higher = faster cleavage; RNA array
Details: with glucosamine-6-phosphate
This sample holds only a part of the variants without activity.
PARAMETER: self-cleavage kobs at 10000 uM GlcN6P (s⁻¹)
Write down the numeric answer in s⁻¹ and omit the unit.

Example results:
A12C U69G
5.86e-05
G35A C50G C61G
0.000252
G32A G41C
3.31e-05
A14G G29U G40C
0.00075
A12C G37A A39C
0.000849

Data request, read-out self-cleavage kobs at 10000 uM GlcN6P, for U56A U69C C71G
8.19e-05

Thanks! And A42G G66A U69A ?
0.0125

Thanks! And G40A U46G ?
0.00152

Thanks! And A39C A42C ?
5.88e-05

Thanks! And A14C U49G ?
9.07e-05

Thanks! And A39U G40A C67A ?
0.000247

Thanks! And G41C C71U ?
0.00016

Thanks! And A12G G29U C67G ?
6.04e-05

Thanks! And U30A U69A ?
3.22e-05

Thanks! And G29A U54G ?
0.00293

Thanks! And A15C U46A ?
0.000416

Thanks! And G37A U54A U65G ?
0.000215

Thanks! And U30A U45A ?
0.0107

Thanks! And A12C A15U U31C ?
6.96e-05

Thanks! And A39G U45A ?
0.0497

Thanks! And G13U A14C ?
0.00011

Thanks! And A6U C71U ?
0.000235

Thanks! And A15C G40A U49G C71U ?
4.71e-05
